System: elastase
Test: Elastase release from cytochalasin A/f-MLP-stimulated neutrophils (SAAVNA substrate)
Assay type: cell-based, human
Details: 20 μM, % of stimulated control
Description: Peripheral venous blood was taken from healthy human donors (20–35 years old) in the Warsaw Blood Donation Centre. […] The study conformed to the principles of the Declaration of Helsinki. […] The purity of neutrophil preparations was >97 %, and viability measured by trypan blue exclusion was >98 %. […] Neutrophil elastase release was determined using SAAVNA as a substrate, and […] was measured spectrophotometrically. […]
Kindly state Elastase release Mean(%) for each of the entries shown.

Q: # return recorded Elastase release Mean(%) for input O=C(OC1COC(=O)c2cc(O)c(O)c(O)c2-c2c(cc(O)c(O)c2O)C(=O)OC1C1OC(=O)c2cc(O)c(O)c(O)c2-c2c(O)c(O)c(O)c3c2C(=O)OC1C3O)c1cc(O)c(O)c(O)c1Oc1cc2c(c(O)c1O)-c1c(cc(O)c(O)c1O)C(=O)OCC1OC(=O)c3cc(O)c(O)c(O)c3-c3c(O)c(O)c(O)c4c3C(=O)OC(C1OC2=O)C1OC(=O)c2c-4c(O)c(O)c(O)c2C1O (stereo not drawn) [SA, salicarinin A]
Result: 42,22%

Q: Find the measured Elastase release Mean(%) of O=C(OC1COC(=O)c2cc(O)c(O)c(O)c2-c2c(cc(O)c(O)c2O)C(=O)OC1C1OC(=O)c2cc(O)c(O)c(O)c2-c2c(O)c(O)c(O)c3c2C(=O)OC1C3O)c1cc(O)c(O)c(O)c1Oc1cc2c(c(O)c1O)-c1c(cc(O)c(O)c1O)C(=O)OCC1OC(=O)c3cc(O)c(O)c(O)c3-c3c(O)c(O)c(O)c4c3C(=O)OC(C1OC2=O)C1OC(=O)c2c-4c(O)c(O)c(O)c2C1O (stereo not drawn) [SB, salicarinin B] and report it.
Result: 38,16%

Q: Report measured Elastase release Mean(%); entry is O=c1c(O)c(-c2ccc(O)c(O)c2)oc2cc(O)cc(O)c12 [Q, quercetin, reference compound]
Result: 55,22%

Q: Answer with the recorded Elastase release Mean(%) for the molecule listed here: O=C1OC[C@H]2OC(=O)c3cc(O)c(O)c(O)c3-c3c(O)c(O)c(O)c4c3C(=O)O[C@H]([C@H]3OC(=O)c5c-4c(O)c(O)c(O)c5[C@H]3O)[C@@H]2OC(=O)c2cc(O)c(O)c(O)c2-c2c1cc(O)c(O)c2O
Result: 105,22%

Q: Give the reported value of Elastase release Mean(%) for this record: O=C1OCC2OC(=O)c3cc(O)c(O)c(O)c3-c3c(O)c(O)c(O)c4c3C(=O)OC(C2OC(=O)c2cc(O)c(O)c(O)c2-c2c1cc(O)c(O)c2O)C1OC(=O)c2c-4c(O)c(O)c(O)c2C1O (stereo not drawn)
Result: 102,89%

Q: For the molecule O=C(OC1COC(=O)c2cc(O)c(O)c(O)c2-c2c(cc(O)c(O)c2O)C(=O)OC1C1OC(=O)c2cc(O)c(O)c(O)c2-c2c(O)c(O)c(O)c3c2C(=O)OC1C3O)c1cc(O)c(O)c(O)c1Oc1cc2c(c(O)c1O)-c1c(cc(O)c(O)c1O)C(=O)OCC1OC(=O)c3cc(O)c(O)c(O)c3-c3c(O)c(O)c(O)c4c3C(=O)OC(C1OC2=O)C1OC(=O)c2c-4c(O)c(O)c(O)c2C1O (stereo not drawn) [SC, salicarinin C] , report Elastase release Mean(%).
Result: 50,60%
